Target: UniProtKB Q16853
Sequence (Q16853 1-763): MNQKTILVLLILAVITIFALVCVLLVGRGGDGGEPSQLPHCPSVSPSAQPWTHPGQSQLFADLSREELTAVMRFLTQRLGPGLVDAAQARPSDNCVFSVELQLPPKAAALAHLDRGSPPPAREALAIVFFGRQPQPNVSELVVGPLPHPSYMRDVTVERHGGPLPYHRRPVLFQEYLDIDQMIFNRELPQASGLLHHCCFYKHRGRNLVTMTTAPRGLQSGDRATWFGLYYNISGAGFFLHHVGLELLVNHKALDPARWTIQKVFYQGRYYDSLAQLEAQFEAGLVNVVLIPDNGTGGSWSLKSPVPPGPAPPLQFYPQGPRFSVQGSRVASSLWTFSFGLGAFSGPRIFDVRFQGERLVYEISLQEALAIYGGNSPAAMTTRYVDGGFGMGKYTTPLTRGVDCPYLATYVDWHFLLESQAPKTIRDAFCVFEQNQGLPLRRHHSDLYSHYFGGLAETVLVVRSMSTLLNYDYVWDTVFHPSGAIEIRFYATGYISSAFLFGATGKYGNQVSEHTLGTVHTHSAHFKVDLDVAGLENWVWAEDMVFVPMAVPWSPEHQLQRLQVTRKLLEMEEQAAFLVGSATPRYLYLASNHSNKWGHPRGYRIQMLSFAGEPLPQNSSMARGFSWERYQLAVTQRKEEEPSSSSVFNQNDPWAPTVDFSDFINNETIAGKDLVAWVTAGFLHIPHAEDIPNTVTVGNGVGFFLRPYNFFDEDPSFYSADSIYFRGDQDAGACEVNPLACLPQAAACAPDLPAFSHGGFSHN
Experiment: SSAO (amine oxidase) activity of VAP-1 transfected cells, radiochemical [14C]-benzylamine and fluorometric Amplex Red H2O2 assays
Assay type: cell-based
Set-up: expressed in transfected cells; host or cells: Ax endothelial cells or CHO cells
Settings: VAP-1 transfected Ax endothelial or CHO cells; benzylamine substrate; 30 min pre-incubation at 37° C.; agents at 1 mg/ml and 100 μg/ml (concentration not given); representative of 2 to 5 experiments
Binning rule for recorded % of inhibition: bottom range (below 10%), center range (10% to below 60%), top range (60% or more)

molecule	groupLabel
NC[C@H]1O[C@H](O[C@H]2[C@H](O)[C@@H](O[C@H]3O[C@H](CO)[C@@H](O)[C@H](N)[C@H]3O)[C@H](N)C[C@@H]2N)[C@H](N)C[C@@H]1O	top range
N[C@H]1C(O)O[C@H](CO)[C@@H](O)[C@@H]1O (stereo partly drawn)	bottom range
N[C@H]1C(O)O[C@H](CO)[C@H](O)[C@@H]1O (stereo partly drawn)	center range
CCN[C@@H]1C[C@H](N)[C@@H](O[C@H]2OC(CN)=CC[C@H]2N)[C@H](O)[C@H]1O[C@H]1OC[C@](C)(O)[C@H](NC)[C@H]1O	center range
N[C@@H]1C(O)O[C@H](CO)[C@@H](O)[C@@H]1O (stereo partly drawn)	center range
CN[C@@H]1[C@@H](O)[C@@H](O[C@@H]2[C@@H](O)[C@H](O[C@H]3O[C@H]([C@@H](C)O)[C@@H](O)[C@H](O)[C@H]3N)[C@@H](N)C[C@H]2N)OC[C@]1(C)O	center range
[H]/N=C(/N)N[C@H]1[C@H](O)[C@@H](O)[C@H](O[C@@H]2O[C@@H](C)[C@](O)(C=O)[C@H]2O[C@@H]2O[C@@H](CO)[C@H](O)[C@@H](O)[C@@H]2NC)[C@@H](N/C(N)=N\[H])[C@@H]1O	bottom range

# input for lookup
Task: GET /class?item= "NCC[C@H](O)C(=O)N[C@@H]1C[C@H](N)[C@@H](O[C@H]2O[C@H](CN)[C@@H](O)[C@H](O)[C@H]2O)[C@H](O)[C@H]1O[C@H]1O[C@H](CO)[C@@H](O)[C@H](N)[C@H]1O"
Output: top range
